B1: glmS ribozyme (parent)
chain: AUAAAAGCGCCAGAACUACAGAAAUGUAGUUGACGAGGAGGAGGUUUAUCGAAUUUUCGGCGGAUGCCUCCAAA

# Variants of: B1
# Protocol details: self-cleavage kobs at 10000 uM GlcN6P; higher = faster cleavage; RNA array
# Assay context: with glucosamine-6-phosphate
Variants at the floor of the assay were thinned out.
Given measured self-cleavage kobs at 10000 uM GlcN6P, output fulfilled if it is greater than or equal to 0.0002 s⁻¹ and not fulfilled if not.

Check out these entries, answers already filled in.
| Mutant name | Label class |
| --- | --- |
| C16A G66C | not fulfilled |
| C10U A12C | not fulfilled |
| G38A U46G | not fulfilled |
| G37C A48C | not fulfilled |
| G13C G32C U57G C70G | not fulfilled |
| G29C C34A | not fulfilled |
| A6G A36C C71U | not fulfilled |
| A39U G40C | fulfilled |

Hello, I need to know if U46G U47A has measured self-cleavage kobs at 10000 uM GlcN6P not below 0.0002 s⁻¹. Thanks!
fulfilled

Also need G13A U57G C70U , thanks.
not fulfilled

Next variant up: C8G G59C
not fulfilled

Further, for A48U U54G C70U ?
fulfilled

Next variant: G38U U57G C68A U69A
not fulfilled

Entry to check: G41C G44U
not fulfilled
